Biological target: Ni^2+ form of Peptide Deformylase (S. Aureus) (Staphylococcus aureus)
Sequence (P68826 whole entry): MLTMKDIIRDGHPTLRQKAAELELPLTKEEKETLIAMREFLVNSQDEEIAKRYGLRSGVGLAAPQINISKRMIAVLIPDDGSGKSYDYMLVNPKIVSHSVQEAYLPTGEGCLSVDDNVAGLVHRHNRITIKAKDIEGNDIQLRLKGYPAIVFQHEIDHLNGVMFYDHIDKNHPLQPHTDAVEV
Assay: Deformylation of For-Met-Ala-Ser-OH by Ni-PDF monitored by 1H NMR over incubation times
Conditions: 2.5 mM substrate, 1 uM enzyme; from slopes of formate buildup, assuming a KM of 2.5 mM; FIG. 4; read-out: KEI (constant of inhibition)
pKi: −log10 of the molar value.
// pKi lookup, one value per entry
Assay endpoint: pKi

In [3]: df
Out[3]:
                                   compound  reported_result
0  N=C(NNc1ccccc1)N[N+](=O)[O-] [N-Nitro-N′-(N-phenylamino)guanidine]             3.82
1      Oc1cccc2cccnc12 [8-hydroxyquinoline]             3.47
